What follows is literature data on pIC50 for Mast/stem cell growth factor receptor Kit (Homo sapiens).
pIC50: −log10 of the molar value.
quantity_kind: pIC50

>>> data_value("O=C(CCCCCCC(=O)NCc1cc(Oc2ccc(NC(=O)Nc3ccc(Cl)c(C(F)(F)F)c3)cc2)ccn1)NO")
"> 7.00"
>>> data_value("FC(F)(F)c1ccc(CNc2ccc(Cc3c[nH]c4ncnc(C5CCCC5)c34)cn2)cn1")
"≥ 5.00"
>>> data_value("CCCS(=O)(=O)Nc1ccc(F)c(C(=O)c2c[nH]c3ncc(-c4ccc(S(=O)(=O)NC)cc4)cc23)c1F")
"≥ 5.00"
>>> data_value("Clc1cccc(Nc2c[nH]c3ncccc23)c1")
"≥ 5.00"
>>> data_value("CNc1ncc2c(n1)N1CCN=C1C(c1cc(NC(=O)Nc3cc(C(F)(F)F)ccc3Cl)c(F)cc1C)=C2")
"> 7.00"
>>> data_value("COc1cccc(C(=O)c2c[nH]c3ncc(-c4cccc(C(N)=O)c4)cc23)c1")
"≥ 5.00"
>>> data_value("CCCS(=O)(=O)Nc1ccc(F)c(C(=O)c2c[nH]c3ncc(N4CCC(C)CC4)cc23)c1F")
"≥ 5.00"
>>> data_value("CCc1ccc(Nc2ccc(Cc3c[nH]c4ncnc(C)c34)c(F)n2)cn1")
"> 7.00"
>>> data_value("O=C(Nc1ccc(F)c(C(O)c2c[nH]c3ncc(Br)cc23)c1F)OCc1ccccc1 (centres unmarked)")
"≥ 5.00"
>>> data_value("CCc1cc(NC(=O)Nc2ccc(Oc3ccnc(-c4cnn(C)c4)c3)cc2F)n(-c2cccc(C#N)c2)n1")
"> 7.00"
>>> data_value("O=C(c1ccc(NC2CCC(F)(F)CC2)nc1)c1c[nH]c2ncnc(NCC(F)(F)F)c12")
"> 7.00"
>>> data_value("CS(=O)(=O)Nc1cccc(-c2cnc3[nH]cc(C(=O)c4c(F)ccc(OC(F)F)c4F)c3c2)c1")
"≥ 5.00"
>>> data_value("COc1ccc(F)c(C(=O)c2c[nH]c3ncc(-c4cccc(NS(C)(=O)=O)c4)cc23)c1F")
"≥ 5.00"
>>> data_value("CC1CN(c2cncnc2)Cc2cc(C(=O)Nc3cc(CN4CCN(C)CC4)cc(C4CCCC4)c3)ccc21 (centres unmarked)")
"< 5.00"
>>> data_value("O=C(c1cccc(OC(F)(F)F)c1)c1c[nH]c2ncc(-c3ccccc3)cc12")
"≥ 5.00"
>>> data_value("O=C(Nc1cccc(C(=O)c2c[nH]c3ncccc23)c1)Nc1ccc(Cl)c(C(F)(F)F)c1")
"≥ 5.00"
>>> data_value("Clc1ccc(-c2cnc3[nH]ccc3c2)cc1")
"≥ 5.00"
>>> data_value("OCCOc1cccc(Cc2c[nH]c3ncccc23)c1")
"≥ 5.00"
>>> data_value("O=C(c1cccc(O)c1F)c1c[nH]c2ncc(Br)cc12")
"≥ 5.00"
>>> data_value("c1cncc(-c2cnc3[nH]ccc3c2)c1")
"≥ 5.00"
>>> data_value("CC(C)c1cc(CN2CCN(C)CC2)cc(NC(=O)c2ccc3c(c2)CN(c2cncnc2)CC3C)c1 (centres unmarked)")
"< 5.00"
>>> data_value("COc1cc(OC)cc(-c2ccc3c(-c4ccc(F)cc4)n[nH]c3n2)c1")
"< 4.00"
>>> data_value("N#Cc1cnc2[nH]cc(C(=O)c3cccc(NS(=O)(=O)c4c(F)cccc4F)c3F)c2c1")
"≥ 5.00"
>>> data_value("Cn1cc(-c2cc(Oc3ccc(NC(=O)N4CCC5(CC(F)(F)C5)C4=O)nc3)ccn2)cn1")
8.35
>>> data_value("CCCS(=O)(=O)Nc1ccc(F)c(C(=O)c2c[nH]c3ncc(-c4ccc(S(=O)(=O)CC)cc4)cc23)c1F")
"≥ 5.00"
>>> data_value("Cn1cc(-c2cc(Oc3ccc(NC(=O)Nc4cnn(C(C)(C)C)c4)c(F)c3F)ccn2)cn1")
"> 7.00"
>>> data_value("CCCS(=O)(=O)Nc1ccc(F)c(C(OC)c2c[nH]c3ncc(Br)cc23)c1F (centres unmarked)")
"≥ 5.00"
>>> data_value("CCCS(=O)(=O)Nc1ccc(F)c(C(=O)c2c[nH]c3ncc(-c4ccc(O)nc4)cc23)c1F")
"≥ 5.00"
>>> data_value("O=C(c1cccc(NS(=O)(=O)c2cccc(Cl)c2)c1)c1c[nH]c2ncc(Cl)cc12")
"≥ 5.00"
>>> data_value("O=C(c1cc(O)ccc1F)c1c[nH]c2ncccc12")
"≥ 5.00"
>>> data_value("CCCS(=O)(=O)Nc1cccc(C(=O)c2c[nH]c3ncc(Cl)cc23)c1")
"≥ 5.00"
>>> data_value("CCN1CCC(Nc2ccc3c(c2)/C(=C(\\c2ccc(C(F)(F)F)c(F)c2)c2ncc[nH]2)C(=O)N3)CC1")
"6.30 to 7.30"
